# Test system: Saccharomyces cerevisiae;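 also: PSI is a weighted mean of sequencing reads over stability bins, variants kept only with over 10 reads, mCherry proximal and sfGFP distal, peptide attached via GGGS linker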
# PROTOCOL DESCRIPTION: protein stability index of tFT-peptide fusion (C-terminal peptide) (PSI (0-1 scale)); higher = more stable (slower turnover)
# ASSAY CONDITIONS: genetic background: doa10 deletion; temperature: 30 C
protein stability index values, listed per item
MEASUREMENT NAME: protein stability index

LSVSLFPIRYVG    0.196
ALLIYFLCRCIP    0.301
FVMLSFLVSSLP    0.304
VCMHIVLLAASP    0.201
KYQVIILQTRKI    0.201
FPLGMFWVCFFV    0.181
RFHTFVFCLLCL    0.28
VCLLGWGVRLVS    0.321
VIQNKKKNKITS    0.177
GWRRRIWLCRLQ    0.41
AGTLLLGYGILA    0.309
VLARGFHCMYFC    0.444
GLVVWWLSGWLW    0.221
FFRPWRLVGCLV    0.189
LLLALLFWPCPI    0.396
VRFLSLNVLFFC    0.222
LCLLCWIPCSFR    0.486
FAFPTPPPLLFD    0.667
GILVVAASICYV    0.342
